# Protocol Summary: physchem
# Condition Description: water
Measured Endpoint: solubility thermodynamic at 72 h
Please give the number followed by its unit.

Quick one: solubility thermodynamic at 72 h of CC(=O)[C@H]1CC[C@H]2[C@@H]3CCC4=CC(=O)CC[C@]4(C)[C@H]3CC[C@]12C [Progesteron] ?
15 µg/mL

###

# Protocol Summary: Haemolysis of washed human erythrocytes by cyclodextrin derivatives
# Type: cell-based, menschlicher
# Condition Description: washed human erythrocytes (0,25%), 10 mM isotonic phosphate buffer pH 7,4, 37°C/30 min; read graphically against complete lysis in water; read-out: Cyclodextrin-Konzentration (frei bzw.gebunden) zur halb-maximalen Hämolyse
# Procedure: Die Hämolyserate der in Tabelle III aufgeführten Cyclodextrin-Derivate wurde wie folgt bestimmt. Humane Erythrozyten wurden aus Citratblut durch Zentrifugation gewonnen (1000 x g / 10 Minuten), in 10 mM isotonem Phosphatpuffer (pH 7,4) aufgenommen und dreimal gewaschen und in diesem Puffer auf einen Hämatokrit von 5% eingestellt. […]
Measured Endpoint: HC50 at 0.5 h (mM)
Give just the number in mM; leave the unit off.

Quick one: HC50 at 0.5 h of OC[C@H]1O[C@@H]2O[C@H]3[C@H](O)[C@@H](O)[C@@H](O[C@H]4[C@H](O)[C@@H](O)[C@@H](O[C@H]5[C@H](O)[C@@H](O)[C@@H](O[C@H]6[C@H](O)[C@@H](O)[C@@H](O[C@H]7[C@H](O)[C@@H](O)[C@@H](O[C@H]8[C@H](O)[C@@H](O)[C@@H](O[C@H]1[C@H](O)[C@H]2O)O[C@@H]8CO)O[C@@H]7CO)O[C@@H]6CO)O[C@@H]5CO)O[C@@H]4CO)O[C@@H]3CO [β-Cyclodextrin] ?
5

From: patent EP1808181A1
